- Test system: DMS-114
- ASSAY_INFO: NCI tumour cell line growth inhibition, 48 h
Activity calls are given as the source filed them. Rule as the data show it: active = GI50 up to about 1.1 µM and inactive = higher.
Kindly supply the reported GI50 values for the records listed here.

(Q) Output reported GI50 of the compound Cn1cnc([N+](=O)[O-])c1Sc1nc2cc(Cl)c(F)cc2[nH]1 on DMS-114.
(A) 6.35 µM (inactive)

(Q) Output reported GI50 of the compound CCc1cccc(C)c1NC(C)=O on DMS-114.
(A) > 100 µM (inactive)

(Q) Output reported GI50 of the compound CC1=Nc2ccccc2S(=O)(=O)N1 on DMS-114.
(A) > 100 µM (inactive)

(Q) Output reported GI50 of the compound N#C/C(=C1\OC(=N)C(c2ccc(Cl)cc2Cl)C1=O)c1ccc(Cl)cc1Cl (stereo unspecified) on DMS-114.
(A) > 100 µM (inactive)

(Q) Output reported GI50 of the compound COC(=O)C(C/C=C(\C)c1ccc(Cl)cc1)C(C)=O (stereo unspecified) on DMS-114.
(A) 19.9 µM (inactive)

(Q) Output reported GI50 of the compound CCOC(=O)C(C(=O)OCC)S(C)(=O)=O on DMS-114.
(A) > 100 µM (inactive)

----------
- System: TK-10
- ASSAY_INFO: NCI tumour cell line growth inhibition, 48 h
Calls of active or inactive are those of the source. Rule as the data show it: active = GI50 up to about 1.1 µM and inactive = higher.
Classes to choose from: true (1) (active), false (0) (inactive)

(Q) Query: recorded result category for CC1=CC(=O)C2=C(C)CCC3C(C)C(=O)OC3C12 (stereo not drawn) in this test
(A) false (0)

(Q) Query: recorded result category for N#CCCn1[nH]c(=O)c(Cl)c(Cl)c1=O in this test
(A) false (0)

(Q) Query: recorded result category for COc1ccc(NC(=O)CC(=O)N2N=C(N(CCC#N)c3ccccc3Cl)CC2c2ccccc2)cc1 (stereo not drawn) in this test
(A) false (0)

(Q) Query: recorded result category for Oc1ccc(Cl)cc1Sc1cc(Cl)ccc1O [FENTICLOR] in this test
(A) false (0)

(Q) Query: recorded result category for O=C(c1cccs1)N(C(=S)N1CCN(c2ccccn2)CC1)c1ccccc1 in this test
(A) false (0)

(Q) Query: recorded result category for COC(=O)[C@@]12OC[C@]34C([C@@H](O)C1O)[C@@]1(C)CC(=O)C(OC(=O)CC(C)C(F)(F)F)=C(C)C1C[C@H]3OC(=O)[C@H](O)[C@H]42 (stereo partly drawn) in this test
(A) false (0)

(Q) Query: recorded result category for COC(=O)C1Cc2c(C)cccc2C1=O (stereo not drawn) in this test
(A) false (0)

(Q) Query: recorded result category for COc1cc(OCc2nc3ccccc3n3cccc23)cc(OC)c1OC in this test
(A) false (0)

(Q) Query: recorded result category for COc1cc(CNc2nc3cc(C(F)(F)F)ccc3nc2C)cc(OC)c1OC in this test
(A) false (0)

(Q) Query: recorded result category for Fc1cc2nc3n(c2cc1F)C(c1c(Cl)cccc1Cl)SC3 (stereo not drawn) in this test
(A) false (0)

(Q) Query: recorded result category for C=CC(Br)(CBr)CCC1OC1(C)C (stereo not drawn) in this test
(A) false (0)

(Q) Query: recorded result category for Cn1c(=O)nc2n(CCO)ccnc-2c1=O in this test
(A) false (0)

(Q) Query: recorded result category for O=C(O)/C(Cl)=C(Cl)/C=N/NC(=O)c1cc2ccccc2cc1O in this test
(A) false (0)

(Q) Query: recorded result category for CSc1n[nH]c2[nH]nc(C)c12 in this test
(A) false (0)

(Q) Query: recorded result category for CCNC(=S)N/N=C(/C)c1cccc(/C(C)=N\NC(=S)NCC)n1 in this test
(A) true (1)

(Q) Query: recorded result category for O=[N+]([O-])c1cccnc1NCC1(CO)CCCC1 in this test
(A) false (0)

(Q) Query: recorded result category for CCC(C(=O)C(=O)OC)P1(=O)OC(C)(C)CN1C(C)(C)C (stereo not drawn) in this test
(A) false (0)

(Q) Query: recorded result category for CC1=Nc2ccccc2S(=O)(=O)N1 in this test
(A) false (0)

(Q) Query: recorded result category for CC(=O)CCN1CC2CN=NC2(C#N)C1 (stereo not drawn) in this test
(A) false (0)

(Q) Query: recorded result category for COc1ccc(C(=O)/C=C/c2ccc(OCC(=O)N3CCN(c4ccccc4)CC3)cc2)cc1 in this test
(A) false (0)

(Q) Query: recorded result category for Cc1ccccc1C1OC(=O)c2ccccc21 (stereo not drawn) in this test
(A) false (0)

(Q) Query: recorded result category for CC(C)[C@@H]1CC[C@@H](C)C[C@H]1OC(=O)c1c2n(c3ccccc13)C[C@H]1OC(C)(C)O[C@@H]21 in this test
(A) false (0)

(Q) Query: recorded result category for COc1ccc2nc3cccc([N+](=O)[O-])c3c(NCCC(=O)O)c2c1 in this test
(A) false (0)

(Q) Query: recorded result category for CC(C)(C)Nc1noc(=O)n1C(C)(C)C in this test
(A) false (0)

(Q) Query: recorded result category for N=C(N)SCCc1ccccn1 in this test
(A) false (0)

(Q) Query: recorded result category for COc1cc2c(cc1OCCCCCN1C(=O)c3cccc4cccc(c34)C1=O)N=C[C@@H]1CCCN1C2=O in this test
(A) true (1)

(Q) Query: recorded result category for C=CCNC(=S)NNC(=O)c1c(C)nc2sccn12 in this test
(A) false (0)

(Q) Query: recorded result category for CN(C)P(=O)(/C(N)=N/Nc1ccc([N+](=O)[O-])cc1)N(C)C in this test
(A) false (0)

(Q) Query: recorded result category for CN(C)CCNC(=O)c1ccc(Cl)c2c(Nc3ccc(S(N)(=O)=O)cc3)c3ccccc3nc12 in this test
(A) false (0)

(Q) Query: recorded result category for CCOC(=O)c1c(C)n(-c2ccc(C)cc2)c(=O)c2ccccc2c(=O)c2c(=O)ccc(=O)c1=2 in this test
(A) false (0)

(Q) Query: recorded result category for CC1(C)CC(=O)C(=CNC(=S)c2ccccc2)C(=O)C1 in this test
(A) false (0)

(Q) Query: recorded result category for CCN1CCC(O)(c2ccc(Cl)c(Cl)c2)C(C(=O)c2ccc(Cl)c(Cl)c2)C1 (stereo not drawn) in this test
(A) false (0)

(Q) Query: recorded result category for C=CC(C)C1(CCCOCc2ccccc2)C(=S)N2CCC3(CC24CCCC14)OCCO3 (stereo not drawn) in this test
(A) false (0)

(Q) Query: recorded result category for Cc1nc2c(sc3nc4ccccc4n32)c(=O)[nH]1 in this test
(A) false (0)

(Q) Query: recorded result category for CC1=C(CO)C(=O)O[C@@H]([C@@H](C)[C@H]2CC[C@H]3[C@@H]4C[C@@H](O)[C@@]5(O)CC=CC(=O)[C@]5(C)[C@H]4CC[C@]23C)C1 [JABOROSALACTONE D] in this test
(A) false (0)

(Q) Query: recorded result category for CC1CN=C(N(C(=O)Nc2ccccc2)C2CCCCC2)S1 (stereo not drawn) in this test
(A) false (0)

(Q) Query: recorded result category for Nn1c(S)nnc1N/N=C1/C(=O)Nc2ccccc21 in this test
(A) false (0)

(Q) Query: recorded result category for O=C1c2ccccc2-n2c1nc1ccccc1c2=O [TRYPTANTHRIN] in this test
(A) false (0)

(Q) Query: recorded result category for c1ccc2c(c1)CCCC/C2=N/OCC1CO1 (stereo not drawn) in this test
(A) false (0)

(Q) Query: recorded result category for C/C=C\C(CC(=O)NCCC1CN(S(=O)(=O)c2ccc(C)cc2)c2ccccc21)CC(=O)OC (stereo not drawn) in this test
(A) false (0)

(Q) Query: recorded result category for c1ccc(C2=NCCc3cc4c(cc32)OCO4)cc1 in this test
(A) false (0)

(Q) Query: recorded result category for CN1CCN(Cn2nc(-c3ccccc3)n(/N=C/c3ccc(-c4ccc(Cl)cc4Cl)o3)c2=S)CC1 in this test
(A) false (0)

(Q) Query: recorded result category for COc1ccc2nc3c([N+](=O)[O-])ccc4c3c(c2c1)N=CN4CCN(C)C in this test
(A) false (0)
